Data provenance is ChEMBL document CHEMBL3632476.

tested on: A549; test: Cytotoxicity against human A549 cells assessed as inhibition of cell proliferation after 72 hrs by SRB assay; assay type: functional, cell-based; conditions: A549, 72 h
value.kind: pIC50
Please report pIC50 as the negative decimal logarithm of the molar concentration, giving only the number.

Below: 2 molecules and their reported pIC50.
smiles.string: COc1ccc2c(c1)CCN1O[C@@]3(C[C@H]21)C(=O)O[C@@H]1O[C@@]2(C)CC[C@H]4[C@H](C)CC[C@@H]3[C@@]14OO2
recorded.measurement: 5.30
--
smiles.string: C[C@@H]1CC[C@@H]2[C@]34OO[C@](C)(CC[C@@H]13)O[C@H]4OC(=O)[C@@]21C[C@@H]2CCCN2O1
recorded.measurement: 4.98

pIC50 reading for CO[C@H]1O[C@@H]2O[C@@]3(C)CC[C@H]4[C@H](C)CC[C@@H]([C@]15CC(c1c(Cl)cccc1Cl)=NO5)[C@@]24OO3 : 4.84
